Data origin: PubChem BioAssay (NCI)

# Tested on: TK-10 renal
# EXPERIMENTAL_PROTOCOL: NCI-60 one-dose screen, 48 h (100 = growth as untreated, 0 = no growth, -100 = all killed)
# EXPERIMENTAL_CONTEXT: 10 µM
# Procedure: Growth inhibition of the TK-10 human tumor cell line is measured as a screen for anti-cancer activity. Cells are grown in 96 well plates and exposed to the test compound for 48 hours. Compounds are tested at a single concentration, which is 10^-5 M for most compounds. The reported endpoint is percent growth (GI% or GIPRCNT), where numbers from 0 - 100% represent growth inhibition, and numbers from -100% - 0 represent cell death. For example, a value of 40 represents 60% growth inhibition. […]
About 83,000 compounds went through this panel and 20% of them were active in at least one assay; those are over-represented in the sample as a whole.
Below, each of the molecules is paired with its reported growth value.
Respond numerically; units are % and should not be typed.

For orientation, consider the following solved cases.
>>> reported_result("O=NN(CCCl)C(=O)Nc1ccc(NC(=O)N(CCCl)N=O)cc1")
114
>>> reported_result("CCc1ccc(-c2nnc(COc3ccc(-c4nc5cc(Cl)c(Cl)cc5[nH]4)cc3OC)o2)cc1")
75.7
>>> reported_result("Cc1ccc(C(=O)O)c(N)c1C")
122
>>> reported_result("CCOc1nc(-c2ccccc2)cc2c(O)c(C(=O)NCCCO)[nH]c(=O)c12")
146
>>> reported_result("COc1cc(CSc2nc3ccc(C)cc3c(=O)n2Cc2ccccc2)cc(OC)c1OC")
52.7
>>> reported_result("C#C[C@]1(O)CC[C@H]2[C@@H]3CC[C@H]4CC(F)(F)CC[C@]4(C)[C@H]3CC[C@@]21C")
97.7
>>> reported_result("Cc1noc(C)c1-c1ccc2nc(NC(=O)[C@H]3CCN(C#N)C3)cn2c1")
81.2
>>> reported_result("COc1ccc(-c2nsc3c2NC(=O)CC3c2ccc(Cl)cc2)cc1 (stereo not given)")
83.9

Input: Consider the molecule c1ccc(C2CCCCC2)c(OCCCCCN2CCNCC2)c1 and give its measured growth.
Output: 83.2

Input: Also check c1ccc(COCC[P+](c2ccccc2)(c2ccccc2)c2ccccc2)cc1
Output: 8.09

###

# System: RXF 393 renal
# EXPERIMENTAL_PROTOCOL: NCI-60 one-dose screen, 48 h (100 = growth as untreated, 0 = no growth, -100 = all killed)
# EXPERIMENTAL_CONTEXT: 10 µM
The panel holds about 83,000 compounds, 20% with a hit somewhere; the sample as a whole holds those more often.
Below, each of the compounds is paired with its reported growth value.
Respond numerically; units are % and should not be typed.

For orientation, consider the following solved cases.
>>> reported_result("Cc1ccc(S(=O)(=O)N2CCc3ccccc3CC2)cc1")
80.3
>>> reported_result("COc1ccc(-c2cn[nH]c2-c2cc(OC)c(OC)c(OC)c2)cc1")
14.8

Input: Form field - read-out: growth; system: RXF 393 renal; submitted item: N#Cc1c2c([nH]c(=O)c1C(N)=O)CCCCC2
Output: 108

Input: Also check C[C@H](NC(=O)[C@@H]1CSSC[C@@H](NC(=O)Cc2nc3ccccc3cc2O)C(=O)NCC(=O)N1C)c1ccccc1
Output: 122

Input: Also check Cc1nc2sccn2c1-c1csc(Nc2cccc(Cl)c2C)n1
Output: 67.8

Input: Also check O=C(O)CCCN1C(=O)NC2(C1=O)c1ccccc1-c1ccccc12
Output: 101

Input: Also check COc1ccc(Cn2cc3c(c2-c2cc(OC)c(OC)c(OC)c2)CCc2cnoc2-3)cc1[N+](=O)[O-]
Output: 10.5

Input: Also check Cc1ccc(C2C=C(c3ccc(Cl)cc3)N=C3SC=CN32)c(Br)c1 (stereo not drawn)
Output: 71.7

Input: Also check CC(C)C[C@H](NC(=O)Cn1ccc2ccccc2c1=O)B(O)O
Output: 10.3

Input: Also check CCN1CCN(c2nc(NNC(=O)c3cccc(OC)c3)nc(N3CCN(C(c4ccccc4)c4ccccc4)CC3)n2)CC1
Output: 56.1

Input: Also check COCCOC(=O)NC(=O)Nc1ccc(/C(=N/O)c2ccc(Cl)cc2)cc1
Output: -13.1

Input: Also check C=C[C@]1(C)C=C2C(=O)[C@@]3(O)OC(=O)[C@@]4(CCCC(C)(C)[C@H]34)[C@@]2(O)CC1
Output: -97.4

Input: Also check CC(=O)CS(C)(=O)=O
Output: 111

Input: Also check FC(F)(F)c1ccc(-c2cnc(Cl)nc2NCc2cc(C(F)(F)F)cc(C(F)(F)F)c2)cc1
Output: 23.3

Input: Also check Oc1ccc(/C=N\Nc2ccccn2)c(O)c1
Output: 28.5
